What Anti-CD28 Fab signal in the presence of CD28 was measured for each of the following?
target: Anti-CD28 Fab (SEQ ID NOs: 696, 697); assay: phage binding ELISA on anti-CD28 Fab; wells first incubated with CD28 antigen as competitor
Sequence (VH, as listed by the source, chain 1 of 2): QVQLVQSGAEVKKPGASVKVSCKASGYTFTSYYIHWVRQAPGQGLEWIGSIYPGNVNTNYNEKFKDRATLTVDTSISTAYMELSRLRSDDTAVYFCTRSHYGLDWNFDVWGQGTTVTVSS
Sequence (VL, as listed by the source, chain 2 of 2): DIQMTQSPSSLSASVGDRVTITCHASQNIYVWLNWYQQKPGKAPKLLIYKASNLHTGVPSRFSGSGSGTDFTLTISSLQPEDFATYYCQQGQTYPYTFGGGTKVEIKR
// keep it numeric: no unit symbol after the value

GET /values?readout=Anti-CD28 Fab signal in the presence of CD28&item= YCDGHSAEYMQKCL [Phage-729]
0.07

And the next one, YCDGHSPEHIRKCL [Phage-732] ?
0.11

And the next one, YCDGHLVEYMSKCL [Phage-730] ?
0.08

And the next one, YCDGHLPEYLGKCL [Phage-724] ?
0.08

And the next one, YCEGHLSQYMEKCL [Phage-731] ?
0.08
